Provide the reported GI50 of each item.
# Tested on: HT-29
# test.summary: NCI tumour cell line growth inhibition, 48 h
Calls of active or inactive are those of the source. Rule as the data show it: active = GI50 up to about 1.1 µM and inactive = higher.

Observe how each entry below is paired with its result.
# compound, GI50
rows = [
    ("O=C(c1ccccc1)N1CCN(C(=S)NC2CCCCC2)C1=S", "20.2 µM (inactive)"),
    ("OCC(O)COc1ccc(Br)cc1 (stereo not drawn)", "> 100 µM (inactive)"),
]

// moving on: another record for GI50
-- ask Using HT-29 as the test system, report measured GI50 of O=C(CN1CCOCC1)c1ccc2c(c1)oc(=O)n2CCN1CCCCC1 .
-- reply > 100 µM (inactive)

---

# Test system: SNB-75
# test.summary: NCI tumour cell line growth inhibition, 48 h
Calls of active or inactive are those of the source. Rule as the data show it: active = GI50 up to about 1.1 µM and inactive = higher.
The reply should be one of these categories: T = active, F = inactive

# compound, assay.target, category
data = [
    ("Cc1n[nH]c(=O)n1/N=C/c1ccc(Cl)cc1", "SNB-75", "F"),
    ("CC1=NN(C(=O)c2ccc(C)cc2)C(=O)C1/N=N/c1ccccc1C(=O)O (stereo not given)", "SNB-75", "F"),
    ("CNC(=S)/C(C#N)=C(\\N)N1CCN(C)CC1", "SNB-75", "F"),
    ("Fc1ccc(C2NC(=S)NC3=C2CCOc2c3ccc3ccccc23)cc1 (stereo not given)", "SNB-75", "F"),
]

-- ask I'd appreciate the recorded outcome for CC(=O)c1ccc(Oc2c3ccccc3nc3ccccc23)cc1 from this test.
-- reply F

-- ask I'd appreciate the recorded outcome for O=c1oc2ccccc2c(-c2ccc(O)cc2)c1Oc1ccc(Cl)cc1 from this test.
-- reply F

-- ask I'd appreciate the recorded outcome for CSc1nncc(-c2cc3c(c(SC)n2)CCC3)n1 from this test.
-- reply F

-- ask I'd appreciate the recorded outcome for CC(=O)OC1CC2C(C)(C)C(=O)C=CC2(C)C2CCC3(C)C(c4ccoc4)OC(=O)C4OC43C12C (stereo not given) from this test.
-- reply F

-- ask I'd appreciate the recorded outcome for COc1ncnc2c(Cl)c(C(O)c3ccccc3)c(Cl)cc12 (stereo not given) from this test.
-- reply F

---

Provide the reported GI50 of each item.
# Test system: SN12C
# test.summary: NCI tumour cell line growth inhibition, 48 h
Calls of active or inactive are those of the source. Rule as the data show it: active = GI50 up to about 1.1 µM and inactive = higher.

Observe how each entry below is paired with its result.
# compound, measured.result
rows = [
    ("CC(C)CC(N)C(=O)O (stereo not drawn)", "> 100 µM (inactive)"),
    ("CCOC(=O)C(=CNc1ccc(F)c(F)c1)C(=O)OCC", "> 100 µM (inactive)"),
    ("O=C1c2cccc3cccc(c23)C(=O)N1CCCNCCCCNCCCN1C(=O)c2cccc3cccc(c23)C1=O", "0.104 µM (active)"),
    ("[O-][S+](c1ccccc1)c1ccc(/N=N/O)nc1 (stereo not drawn)", "> 100 µM (inactive)"),
    ("COc1cc2c(cc1OC)C1(c3ccccc3)ON=C(c3ccccc3)N1CS2 (stereo not drawn)", "> 100 µM (inactive)"),
]

# return GI50 for each item in the list
1. Cc1occc1C(=S)Nc1ccc(Cl)c(C(=O)OCC(C)C)c1
2. CCOP(=O)(OCC)/C(C#N)=C/c1ccc(-c2ccc(F)cc2F)o1
3. CC1=NNC(=O)C1C1CC(c2c[nH]c3ccccc23)=NN=C1Cl (stereo not drawn)

-- reply
["16.8 µM (inactive)", "15.8 µM (inactive)", "82 µM (inactive)"]

# return GI50 for each item in the list
1. CCOC(=O)/C(C#N)=C\c1ccc(N(CCC(=O)O)CCC(=O)O)c(I)c1
2. COc1cc(-c2ccccc2N)c2cccnc2c1OC
3. Cc1cc(=O)oc2cc3c(cc12)Oc1ccccc1O3
4. CCOc1ccc(/C=C2\N=C(c3ccc([N+](=O)[O-])cc3)OC2=O)cc1

-- reply
> 10 µM (inactive)
3.93 µM (inactive)
> 100 µM (inactive)
> 100 µM (inactive)

-- ask Return GI50 for the following compound: CCOC(=O)C1Cc2ccc3c4c(ccc(c24)C1)CC(C(=O)OCC)C3
-- reply > 100 µM (inactive)

---

Provide the reported GI50 of each item.
# Tested on: HCC 2998
# test.summary: NCI tumour cell line growth inhibition, 48 h
The source made the active and inactive calls. Cut-off read from the data, not from the text of the source: active = GI50 up to about 1.1 µM and inactive = higher.

# compound, assay.target, measured.result
records = [
    ("CC1=NCC[N+]1(CCc1ccccc1)Cc1ccccc1 (stereo not drawn)", "HCC 2998", "35.7 µM (inactive)"),
    ("CC1=C(SC#N)S(=O)(=O)N(c2ccccc2)C(C)=C1SC#N", "HCC 2998", "> 100 µM (inactive)"),
    ("CN1C(=O)C(O)C[C@@H]1c1ccccc1 (stereo partly drawn)", "HCC 2998", "> 100 µM (inactive)"),
    ("O=c1nc2n(CCO)c(-c3ccccc3)c(-c3ccccc3)nc-2c(=O)[nH]1", "HCC 2998", "> 100 µM (inactive)"),
    ("CCOC(=O)Nn1c(C)nnc1CC#N", "HCC 2998", "> 100 µM (inactive)"),
]

# return GI50 for each item in the list
1. O=C1OC(=O)c2cc(S(=O)(=O)c3ccc4c(c3)C(=O)OC4=O)ccc21
2. C1=CC2SSSC2C1 (stereo not drawn)
3. CCOC(=O)NC(=O)c1cn(CC(=O)NCC(=O)NCC(=O)NCCCN2CCN(CCCNC(=O)CNC(=O)CNC(=O)Cn3cc(C(=O)NC(=O)OCC)c(=O)[nH]c3=O)CC2)c(=O)[nH]c1=O
4. CC(C)C1/C(=N/O)CC(c2ccccc2)N(N=O)C1c1ccccc1 (stereo not drawn)
5. O=[N+]([O-])c1ccc(N2N=C(c3ccc4ccccc4c3O)CC2c2ccc(Cl)cc2Cl)c([N+](=O)[O-])c1 (stereo not drawn)
6. COc1ccccc1Cn1[nH]c(=O)c2cc([N+](=O)[O-])ccc21

-- reply
1: > 100 µM (inactive); 2: > 100 µM (inactive); 3: > 100 µM (inactive); 4: 37.2 µM (inactive); 5: 30.3 µM (inactive); 6: 65.9 µM (inactive)

# return GI50 for each item in the list
1. CCN1C(=O)C(=C/C=C/c2ccc([N+](=O)[O-])cc2)C(=O)N(CC)C1=S
2. O=C(/C=C\c1cccc2ccccc12)c1ccc(Br)cc1

-- reply
["43.4 µM (inactive)", "17.5 µM (inactive)"]

---

# System: HT-29
# test.summary: NCI tumour cell line growth inhibition, 48 h
The source made the active and inactive calls. No stated cut-off is given here; in the data, active = GI50 up to about 1.1 µM and inactive = higher.
Provide the reported GI50 of each item.

# return GI50 for each item in the list
1. Cc1nn(-c2ccccc2)c(S)c1C(=O)c1ccccc1
2. N#Cc1sc2c(c1OC(=O)c1cccs1)c(=O)n(-c1ccccc1)c(=S)n2-c1ccccc1
3. COc1cc2c3c(c1OC)-c1ccccc1C(C(OC(C)=O)c1ccccc1)C3N(C)CC2 (centres undefined)
4. CCCCCCc1cc2cc(C(=O)Nc3cccc(C(F)(F)F)c3)c(=N)oc2cc1O

-- reply
10 µM (inactive)
29.5 µM (inactive)
38.3 µM (inactive)
5.96 µM (inactive)

---

Provide the reported GI50 of each item.
# System: HCT-15
# test.summary: NCI tumour cell line growth inhibition, 48 h

# compound, GI50
records = [
    ("CCCCCCSCC/C(C)=N\\OC", "> 100 µM"),
    ("CN1C(=O)N(c2ccccc2)C2(CCN(CC3COc4ccccc4O3)CC2)C1=O (centres undefined)", "> 100 µM"),
    ("COc1ccc2c(c1)[n+]([O-])c(C(=O)C/C(=N/OCCCc1ccccc1)C(=O)NC13CC4CC(CC(C4)C1)C3)c(C)[n+]2[O-]", "> 100 µM"),
    ("Nc1nccc(NCC2(CO)CC(OCc3ccccc3)C2)n1 (centres undefined)", "> 100 µM"),
    ("COC(=O)C1CCC(C)CC1=O (centres undefined)", "> 100 µM"),
]

# return GI50 for each item in the list
1. COc1ccc(CCN(C)C2CCC(C#N)(c3ccc(OC)c(OC)c3)CC2)cc1OC (centres undefined)
2. COc1ccc(/C=C/CO)cc1OC
3. CCOC(=O)N1N(c2ccccc2)C(=O)C1(c1ccccc1)c1ccccc1

-- reply
1. > 100 µM
2. > 100 µM
3. > 100 µM

# return GI50 for each item in the list
1. COc1cc(/C=C/C(=N\NC(=O)c2ccccc2)c2sc(Nc3ccc(Cl)c(Cl)c3)nc2C)ccc1O
2. Cc1ccc(F)c2[nH]c(-c3ccccc3)cc(=O)c12
3. C1=CC2SSSC2C1 (centres undefined)
4. O=C1CS(=O)(=O)C(c2cccc(Oc3ccccc3)c2)N1c1cccc(Cl)c1 (centres undefined)
5. c1ccc2c(c1)ccc1nc(-c3ccc4c(c3)OCO4)c3c(c12)CCCC3
6. O=C1C(Cl)=C(Cl)C(=O)C2=C1C1c3ccccc3C2c2ccccc21

-- reply
1. 31.9 µM
2. 1.64 µM
3. > 100 µM
4. 22.1 µM
5. 6.07 µM
6. 39.3 µM
